Recorded values, source PubChem BioAssay (NCI).

Answer each item with its documented growth.
- Tested on: SF-268 CNS
- Run Description: NCI-60 one-dose screen, 48 h (100 = growth as untreated, 0 = no growth, -100 = all killed)
- Experimental Conditions: 10 µM unless noted
This is part of a sample that, as a whole, favours compounds with a hit. Of some 83,000 tested, about 20% had one in any assay.
Answers are plain numbers, in %.

Look over these answered cases.
CNC(=O)c1c(C)oc2cc(Oc3ncnc4cc(OC)c(OC)cc34)ccc12: 70.7
Nc1ncnc2c1ccn2-c1cccc(NC(=O)c2ccc(N3CCOCC3)c(C(F)(F)F)c2)c1: 55
CNC(=O)c1cc(Oc2ccc(NC(=O)Nc3ccc(Cl)c(C(F)(F)F)c3)c(F)c2)ccn1: -30.6
Cc1cc(N(CCNc2ccnc3cc(Cl)ccc23)Cc2cccs2)nc(Cl)n1: 19.3
Cc1cc([C@@H](C)Nc2ccccc2C(=O)O)c2nc(N3CCOCC3)cc(=O)n2c1: 47.6

State recorded growth with SF-268 CNS, entry C[C@H](NC(=O)c1c(N)nn2cccnc12)c1cc2cccc(C#Cc3cnn(C)c3)c2c(=O)n1-c1ccccc1 , no comment.
25.3

----------
- Tested on: KM12 colon
- Run Description: NCI-60 one-dose screen, 48 h (100 = growth as untreated, 0 = no growth, -100 = all killed)
- Experimental Conditions: 10 µM unless noted
The panel holds about 83,000 compounds, 20% with a hit somewhere; the sample as a whole holds those more often.
Lab note: compare growth with 10%, writing Satisfied if less and Not satisfied if equal or more.

The following compounds have reported results that may help.
Cc1nc(Nc2n[nH]c3c2CN(C(=O)N[C@H](CN(C)C)c2ccccc2)C3(C)C)c2sccc2n1: Satisfied
COc1ccc(-c2ccc3c(N4CCOC[C@@H]4C)nc(N4CCOC[C@@H]4C)nc3n2)cc1CO: Not satisfied
COc1cc(Nc2ncc(F)c(Nc3ccc4c(n3)N(COP(=O)(O)O)C(=O)C(C)(C)O4)n2)cc(OC)c1OC: Not satisfied

In plain terms, does Ic1ccccc1-c1ccccc1 come in under 10% for growth?
Not satisfied

Field: below-cutoff. Rule: recorded growth strictly less than 10%. Subject: C=C1CC[C@@H]2[C@](C)(COC(C)=O)[C@H](OC(C)=O)CC[C@@]2(C)[C@@H]1C/C=C1/C(=O)OC[C@H]1OC(C)=O
Not satisfied

Could you please tell me whether growth recorded for C[C@@]1(C(=O)Nc2ccc(F)nc2)CCCN1c1nc(Nc2cc(C3CC3)[nH]n2)c2cccn2n1 is less than 10%?
Satisfied

Strictly below 10% in growth? COc1cc2ncnc3c2cc1OCCCCCN(C)Cc1ccc(Br)cc1N3
Not satisfied

Please check: growth for NC(=O)c1n[nH]n2c1nc(=O)c1c3c(sc12)CCCC3 , strictly under 10% or not?
Not satisfied

Lab note: growth threshold 10%. Does this compound come in strictly under it? Clc1ccc(Nc2nccc(Nc3ccc4[nH]ncc4c3)n2)cc1
Satisfied

Record Nc1cc2c(cc1Br)-c1c(C(=O)O)cccc1C2O (configuration not stated) : is its growth strictly below 10%?
Not satisfied

Find out if reported growth for C[C@@H](Oc1cc(-n2cnc3ccc(CN4CCN(C)CC4)cc32)sc1C(N)=O)c1ccccc1C(F)(F)F is less than 10%
Not satisfied

Given CC1(/C=N/NC(N)=S)NC(=O)NC1=O (configuration not stated) , is recorded growth strictly lower than 10%?
Not satisfied
